Assay: A CellTox Green Cytotoxicity Assay to monitor cytotoxicity in HepG2 cells - 40 hour (AID 1224879); also: nearly all actives have a fitted effect of over 40% in size
Settings: CellTox Green fluorescence; series mostly up to 76.8 µM
Records with an inconclusive call do not appear. Calls of active or inactive are those of the source. Calls follow the shape of the dose curve; as a rule, active = well fitted activation curve with a large enough effect in the repeat runs; inconclusive = weak or mixed curves; inactive = flat fitted curve, though single readings scatter.
# output must be one of 1 (yes) (active), 0 (no) (inactive)

Worked examples follow.
compound: Nc1ccc([N+](=O)[O-])cc1Cl
group: 0 (no)
//
compound: O=[N+]([O-])c1c2ccccc2cc2ccccc12
group: 1 (yes)
//
compound: CC(O)C#N (stereo not drawn)
group: 0 (no)
//
compound: FC(F)(F)c1cccc(C2=CCN(CCc3ccc4ccccc4c3)CC2)c1
group: 0 (no)
//
compound: Cn1[nH]nnc1=S
group: 0 (no)
//
compound: CN(CCCC(=O)c1cccnc1)N=O
group: 0 (no)
//
compound: CCCCCCCCCCCCCC[P+](CCCCCC)(CCCCCC)CCCCCC (tested in a mixture with another compound)
group: 1 (yes)

Turning now to a further compound:
Challenge: Could you please tell me the result logged for [Hg+2].[I-].[I-] in this assay?
Response given: 1 (yes)

###

Experiment: qHTS RealTime-Glo MT Cell Viability Assay in HEK293 cells - 32 hour (AID 1224868); also: nearly all actives have a fitted effect of over 50% in size
Details: RealTime-Glo luminescence; series mostly up to 76.8 µM
Results filed as inconclusive are left out. Active and inactive are the calls of the source. The call rests on the fitted dose curve; in most records, active means well fitted cell-killing curve with a large enough effect in the repeat runs; inconclusive means weak or mixed curves, or effect the other way; inactive means flat fitted curve, though single readings scatter.
# output must be one of true (1) for active, false (0) for inactive

Worked examples follow.
compound: BrC(Br)C(Br)(Br)Br
group: true (1)
//
compound: CCCCCCCCCCCCCN1CC(C)OC(C)C1 (centres undefined)
group: false (0)
//
compound: CC(C)C(=O)Cl
group: false (0)
//
compound: N#Cc1ccc(O)cc1
group: false (0)

Challenge: Could you please tell me the result logged for CCN(CC)C(=S)[S-].CCN(CC)C(=S)[S-].[Zn+2] in this assay?
Response given: true (1)

Challenge: Could you please tell me the result logged for CN(CCCC(O)c1cccnc1)N=O (centres undefined) in this assay?
Response given: false (0)

Challenge: Could you please tell me the result logged for CCOP(=O)(NC(C)C)Oc1ccc(SC)c(C)c1 (centres undefined) in this assay?
Response given: true (1)

Challenge: Could you please tell me the result logged for CCC[CH2][Sn]([CH2]CCC)([CH2]CCC)[O]C(=O)c1ccccc1 in this assay?
Response given: true (1)

Challenge: Could you please tell me the result logged for C[C@]12CC[C@H]3[C@@H](CCC4=CC(=O)CC[C@@]43C)[C@@H]1CC[C@@H]2O in this assay?
Response given: true (1)

Challenge: Could you please tell me the result logged for O=CC(Br)(Br)Br in this assay?
Response given: true (1)

###

Experiment: qHTS assay to identify small molecule agonists of the androgen receptor (AR) signaling pathway in the presence of an antagonist - cell viability counter screen (AID 1259379); also: nearly all actives have a fitted effect of over 25% in size
Details: MDA-kb2 viability, CellTiter-Fluor, 16 h; series mostly up to 92.4 µM
Records with an inconclusive call do not appear. Active and inactive are the calls of the source. Calls follow the shape of the dose curve; as a rule, active = well fitted cell-killing curve with a large enough effect in the repeat runs; inconclusive = weak or mixed curves, or effect the other way; inactive = flat fitted curve, though single readings scatter.
# output must be one of class 1 (active), class 0 (inactive)

Worked examples follow.
compound: CCCCOP(=O)(CCCC)OCCCC
group: class 0
--
compound: [Cl][Sb]([Cl])[Cl]
group: class 1
--
compound: O=C(NC(=O)c1c(F)cccc1F)Nc1cc(Cl)c(OC(F)(F)C(F)F)c(Cl)c1
group: class 0
--
compound: CC(C)OS(C)(=O)=O
group: class 0
--
compound: NNC(=O)c1ccccc1
group: class 0

Turning now to a further compound:
Challenge: Could you please tell me the result logged for CC1(C)C(/C=C(\Cl)C(F)(F)F)C1C(=O)OC(C#N)c1cccc(Oc2ccccc2)c1 (stereo not drawn) in this assay?
Response given: class 0
